Entry source: ChEMBL document CHEMBL2086340

# Organism: Homo sapiens
# measurement_notes: Selectivity index, ratio of IC50 for human recombinant p38alpha to IC50 for human recombinant ALK5
assay_metric: Ratio IC50

structure_notation | obs_value
Cc1cccc(-c2nc(NCc3cccc(Cl)c3Cl)sc2-c2ccc3ncnn3c2)n1 | > 292
Cc1cccc(-c2nc(NCc3cccc(C(N)=O)c3)sc2-c2ccc3ncnn3c2)n1 | 455
Cc1cccc(-c2nc(NCc3ccccc3C)sc2-c2ccc3ncnn3c2)n1 | > 592
Cc1cccc(-c2sc(NCc3ccccc3F)nc2-c2ccc3ncnn3c2)n1 | > 472

Consider the additional molecule presented here.
Which value of Ratio IC50 has been reported for "Cc1cc(C)cc(CNc2nc(-c3cccc(C)n3)c(-c3ccc4ncnn4c3)s2)c1" in the records?
> 455

----------
# Organism: Homo sapiens
# measurement_notes: Selectivity index, ratio of IC50 for human recombinant p38alpha to IC50 for human recombinant ALK5
assay_metric: Ratio IC50

structure_notation | Ratio IC50
Cc1cccc(-c2nc(NCc3cccc(C)c3C)sc2-c2ccc3ncnn3c2)n1 | > 452
COc1cccc(CNc2nc(-c3cccc(C)n3)c(-c3ccc4ncnn4c3)s2)c1 | > 877
Cc1cccc(-c2nc(NCc3ccc(Cl)cc3)sc2-c2ccc3ncnn3c2)n1 | > 633

Which value of Ratio IC50 has been reported for "COc1ccc(CNc2nc(-c3cccc(C)n3)c(-c3ccc4ncnn4c3)s2)cc1OC" in the records?
> 210

Which value of Ratio IC50 has been reported for "Cc1cccc(-c2nc(NCc3cccc(C#N)c3)sc2-c2ccc3ncnn3c2)n1" in the records?
408

Which value of Ratio IC50 has been reported for "Cc1cccc(-c2nc(NCc3cc(F)cc(F)c3)sc2-c2ccc3ncnn3c2)n1" in the records?
428

Which value of Ratio IC50 has been reported for "Cc1ccc(CNc2nc(-c3cccc(C)n3)c(-c3ccc4ncnn4c3)s2)cc1" in the records?
> 1140

Which value of Ratio IC50 has been reported for "Cc1cccc(-c2nc(NCc3ccc(C#N)cc3)sc2-c2ccc3ncnn3c2)n1" in the records?
> 325

Which value of Ratio IC50 has been reported for "Cc1cccc(-c2nc(NCc3ccccc3Cl)sc2-c2ccc3ncnn3c2)n1" in the records?
378

Which value of Ratio IC50 has been reported for "COc1cccc(CNc2nc(-c3cccc(C)n3)c(-c3ccc4ncnn4c3)s2)c1OC" in the records?
> 230

----------
# assay_system: TGF-beta receptor type-1 (Homo sapiens, UniProt P36897)
# Sequence (P36897 whole entry, the tested form may be a part): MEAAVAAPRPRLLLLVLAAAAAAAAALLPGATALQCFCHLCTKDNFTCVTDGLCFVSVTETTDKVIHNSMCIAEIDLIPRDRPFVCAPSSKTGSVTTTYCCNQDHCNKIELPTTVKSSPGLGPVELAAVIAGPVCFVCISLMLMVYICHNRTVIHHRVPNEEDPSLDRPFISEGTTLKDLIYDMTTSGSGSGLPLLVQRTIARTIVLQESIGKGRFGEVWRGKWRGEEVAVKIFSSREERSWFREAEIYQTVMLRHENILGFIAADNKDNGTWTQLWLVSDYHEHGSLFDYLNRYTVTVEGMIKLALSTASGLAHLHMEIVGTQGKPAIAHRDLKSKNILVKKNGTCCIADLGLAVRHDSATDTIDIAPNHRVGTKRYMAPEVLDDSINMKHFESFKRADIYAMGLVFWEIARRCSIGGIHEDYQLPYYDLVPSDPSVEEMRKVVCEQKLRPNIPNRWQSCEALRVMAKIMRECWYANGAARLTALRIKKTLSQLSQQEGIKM
# measurement_notes: Inhibition of human recombinant GST-fused ALK5 expressed in Sf9 cells using casein as a substrate by radioisotopic protein kinase assay
assay_metric: IC50 (nM)

[1] COc1cc(CNc2nc(-c3cccc(C)n3)c(-c3ccc4ncnn4c3)s2)cc(OC)c1
[2] COc1cccc(CNc2nc(-c3cccc(C)n3)c(-c3ccc4ncnn4c3)s2)c1
[3] Cc1cccc(-c2nc(NCc3cccc(Cl)c3Cl)sc2-c2ccc3ncnn3c2)n1
[4] Cc1cccc(-c2nc(NCc3ccc(F)c(F)c3)sc2-c2ccc3ncnn3c2)n1
[5] Cc1cccc(-c2nc(NCc3ccc(OC(F)(F)F)cc3)sc2-c2ccc3ncnn3c2)n1
Sort the 5 compounds by IC50; largest first, smallest last. Ranked list of labels, please, in the requested order.
5, 3, 1, 2, 4

[1] Cc1cccc(-c2nc(NCc3cc(Cl)cc(Cl)c3)sc2-c2ccc3ncnn3c2)n1
[2] Cc1cccc(-c2nc(NCc3cccc(C#N)c3)sc2-c2ccc3ncnn3c2)n1
[3] COc1ccc(CNc2nc(-c3cccc(C)n3)c(-c3ccc4ncnn4c3)s2)cc1
[4] Cc1cccc(-c2nc(NCc3ccccc3OC(F)(F)F)sc2-c2ccc3ncnn3c2)n1
Reorder the items by IC50, least to greatest. Ranked list of labels, please, in the requested order.
2, 1, 3, 4

[1] Cc1cccc(-c2nc(NCc3ccc(Cl)cc3)sc2-c2ccc3ncnn3c2)n1
[2] Cc1cccc(-c2nc(NCc3cccc(F)c3)sc2-c2ccc3ncnn3c2)n1
Select the item whose IC50 value is smaller, choosing between 1 and 2 . Returns: label corresponding to the selected item.
2

[a] Cc1cccc(-c2sc(NCc3ccccc3F)nc2-c2ccc3ncnn3c2)n1
[b] Cc1cccc(-c2sc(NCc3cccc(C(N)=O)c3)nc2-c2ccc3ncnn3c2)n1
Lab note: record which item had the higher IC50, a or b . Returns: label corresponding to the selected item.
a
(a: 21.2 nM, b: 12 nM)

----------
Let's look at some compounds and their measured Ratio IC50.
# Organism: Homo sapiens
# measurement_notes: Selectivity index, ratio of IC50 for human recombinant p38alpha to IC50 for human recombinant ALK5

structure_notation | Ratio IC50
Cc1cccc(-c2nc(NCc3ccc(C(N)=O)cc3)sc2-c2ccc3ncnn3c2)n1 | > 389
Cc1cccc(-c2nc(NCc3ccc(Cl)c(Cl)c3)sc2-c2ccc3ncnn3c2)n1 | > 457

Which value of Ratio IC50 has been reported for "COc1ccc(CNc2nc(-c3cccc(C)n3)c(-c3ccc4ncnn4c3)s2)cc1" in the records?
> 412

----------
# Species on record: Homo sapiens
# measurement_notes: Selectivity index, ratio of IC50 for human recombinant p38alpha to IC50 for human recombinant ALK5
Let's look at some compounds and their measured Ratio IC50.

# annotated cases, reported Ratio IC50 shown
structure_notation | Ratio IC50
Cc1cccc(-c2nc(NCc3ccc(OC(F)(F)F)cc3)sc2-c2ccc3ncnn3c2)n1 | > 164
Cc1cccc(-c2nc(NCc3ccccc3F)sc2-c2ccc3ncnn3c2)n1 | > 962
Cc1cccc(-c2nc(NCc3cc(Cl)cc(Cl)c3)sc2-c2ccc3ncnn3c2)n1 | > 662

Consider the additional compound presented here.
Which value of Ratio IC50 has been reported for "Cc1cccc(-c2sc(NCc3cccc(C(N)=O)c3)nc2-c2ccc3ncnn3c2)n1" in the records?
> 833

----------
# assay_system: TGF-beta receptor type-1 (Homo sapiens)
# measurement_notes: Inhibition of human recombinant GST-fused ALK5 expressed in Sf9 cells using casein as a substrate by radioisotopic protein kinase assay
pIC50: −log10 of the molar value.
assay_metric: pIC50

# annotated cases, reported pIC50 shown
structure_notation | obs_value
Cc1cccc(-c2nc(NCc3ccc(C#N)cc3)sc2-c2ccc3ncnn3c2)n1 | 7.51
Cc1cccc(-c2nc(NCc3ccc(C(N)=O)cc3)sc2-c2ccc3ncnn3c2)n1 | 7.59
Cc1cccc(-c2nc(NCc3ccccc3C)sc2-c2ccc3ncnn3c2)n1 | 7.77
Cc1cccc(-c2nc(NCc3ccccc3F)sc2-c2ccc3ncnn3c2)n1 | 7.98
Cc1cccc(-c2nc(NCc3ccccc3)sc2-c2ccc3ncnn3c2)n1 | 7.95

[P] Cc1cccc(-c2nc(NCc3ccccc3Cl)sc2-c2ccc3ncnn3c2)n1
[Q] Cc1cccc(-c2sc(NCc3cccc(C#N)c3)nc2-c2ccc3ncnn3c2)n1
[R] Cc1ccc(CNc2nc(-c3cccc(C)n3)c(-c3ccc4ncnn4c3)s2)cc1
Reorder the items by pIC50, least to greatest. Ranked list of labels, please, in the requested order.
Q, P, R
(Q: 7.60, P: 7.81, R: 8.06)
